- target or system: IDO1 (Homo sapiens)
- Construct: a human cervical cancer cell line HeLa that endogenously expresses IDO1 upon IFN-γ treatment; endogenous in cells; host or cells: HeLa cells treated with human IFN-γ
- Sequence (P14902 whole entry): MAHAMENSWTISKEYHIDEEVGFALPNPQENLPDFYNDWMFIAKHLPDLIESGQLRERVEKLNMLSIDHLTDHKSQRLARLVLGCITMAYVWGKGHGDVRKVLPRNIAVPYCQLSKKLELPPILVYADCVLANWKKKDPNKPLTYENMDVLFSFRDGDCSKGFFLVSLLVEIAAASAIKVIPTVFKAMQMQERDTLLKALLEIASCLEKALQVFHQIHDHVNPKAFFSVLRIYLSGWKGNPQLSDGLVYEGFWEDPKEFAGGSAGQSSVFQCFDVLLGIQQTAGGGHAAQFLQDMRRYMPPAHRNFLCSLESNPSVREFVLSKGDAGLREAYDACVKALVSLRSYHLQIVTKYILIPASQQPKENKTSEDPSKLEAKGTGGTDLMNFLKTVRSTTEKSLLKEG
- measurement notes: HeLa cell-based IDO1/kynurenine assay
- condition info: HeLa cells, IFN-γ induced IDO1, kynurenine readout
endpoint: IC50 (µM)

C=CC(=O)Nc1ccc(S(=O)(=O)Nc2cccc(OC)c2)cc1 ... 13.4
C=CC(=O)Nc1ccc(S(=O)(=O)NCc2ccccc2)cc1 ... 22.4
C=CC(=O)Nc1ccc(S(=O)(=O)NCc2cccc(Cl)c2)cc1 ... 6.26

(I) C=CC(=O)Nc1ccc(S(=O)(=O)Nc2ccc(F)c(Cl)c2)cc1
(II) C=CC(=O)Nc1ccc(S(=O)(=O)Nc2cccc(F)c2)cc1
In the pair I and II , the larger recorded IC50 belongs to which? When you have decided, please share the label of that item. II
(II: 17.7 µM, I: 3.76 µM)
